The values you see were collected from ChEMBL document CHEMBL5107979.

assay.notes: Distribution coefficient, logD of compound at pH 7.4 by chromatographic method
Type: physicochemical
conditions: octanol/water
observable: chromatographic logD

>  <compound>
O=C1Nc2ccc(I)cc2C1=Cc1cc(Br)c(O)c(Br)c1 [GW305074X]

>  <observable>
chromatographic logD

>  <recorded.result>
2.3

$$$$
>  <compound>
CCCS(=O)(=O)Nc1ccc(F)c(C(=O)c2c[nH]c3ncc(-c4ccc(C(=O)NCCOCCOCCOCCOc5cc(-c6scnc6C)ccc5CNC(=O)[C@@H]5C[C@@H](O)CN5C(=O)[C@H](C(C)C)N5Cc6ccccc6C5=O)cc4)cc23)c1F

>  <observable>
chromatographic logD

>  <recorded.result>
2.5

$$$$
>  <compound>
CCCS(=O)(=O)Nc1ccc(F)c(C(=O)c2c[nH]c3ncc(-c4ccc(C(=O)NCCCCCCOCCCCCOCCCCC(=O)N[C@H](C(=O)N5C[C@H](O)C[C@H]5C(=O)NCc5ccc(-c6scnc6C)cc5)C(C)(C)C)cc4)cc23)c1F

>  <observable>
chromatographic logD

>  <recorded.result>
3.7

$$$$
>  <compound>
CCCS(=O)(=O)Nc1ccc(F)c(C(=O)c2c[nH]c3ncc(-c4ccc(N5CCN(CC(=O)N[C@H](C(=O)N6C[C@H](O)C[C@H]6C(=O)NCc6ccc(-c7scnc7C)cc6)C(C)(C)C)CC5)cc4)cc23)c1F

>  <observable>
chromatographic logD

>  <recorded.result>
2.9

$$$$
>  <compound>
CCN(C)S(=O)(=O)Nc1ccc(F)c(C(=O)c2c[nH]c3ncc(-c4ccc(N5CCN(CC(=O)N[C@H](C(=O)N6C[C@H](O)C[C@H]6C(=O)NCc6ccc(-c7scnc7C)cc6)C(C)(C)C)CC5)cc4)cc23)c1F

>  <observable>
chromatographic logD

>  <recorded.result>
3.2

$$$$

----------
Tested on: von Hippel-Lindau disease tumor suppressor/Serine/threonine-protein kinase B-raf (Homo sapiens), P15056+P40337 [V600E]
assay.notes: Protac activity at VHL/BRAF V600E mutant degradation in human SK-MEL-28 cells harboring wild type NRAS assessed as remaining BRAF V600E level at 1 uM incubated for 4 hrs by densitometric analysis
Assay type: cell-based

>  <structure.as.smiles>
CCCS(=O)(=O)Nc1ccc(F)c(C(=O)c2c[nH]c3ncc(-c4ccc(C(=O)NCCOCCOCC(=O)N[C@H](C(=O)N5C[C@H](O)C[C@H]5C(=O)NCc5ccc(-c6scnc6C)cc5)C(C)(C)C)cc4)cc23)c1F

>  <Remaining BRAF V600E level>
> 95%

$$$$
>  <structure.as.smiles>
CCCS(=O)(=O)Nc1ccc(F)c(C(=O)c2c[nH]c3ncc(-c4ccc(C(=O)NCCCCCCOCCCCCOCCCCC(=O)N[C@H](C(=O)N5C[C@H](O)C[C@H]5C(=O)NCc5ccc(-c6scnc6C)cc5)C(C)(C)C)cc4)cc23)c1F

>  <Remaining BRAF V600E level>
> 95%

$$$$
>  <structure.as.smiles>
CCCS(=O)(=O)Nc1ccc(F)c(C(=O)c2c[nH]c3ncc(-c4ccc(C(=O)NCCOCCOCCOCCCCC(=O)N[C@H](C(=O)N5C[C@H](O)C[C@H]5C(=O)NCc5ccc(-c6scnc6C)cc5)C(C)(C)C)cc4)cc23)c1F

>  <Remaining BRAF V600E level>
> 95%

$$$$
>  <structure.as.smiles>
CCN(C)S(=O)(=O)Nc1ccc(F)c(C(=O)c2c[nH]c3ncc(-c4cnc(N5CCN(CC(=O)N[C@H](C(=O)N6C[C@H](O)C[C@H]6C(=O)N[C@@H](C)c6ccc(-c7scnc7C)cc6)C(C)(C)C)CC5)nc4)cc23)c1F

>  <Remaining BRAF V600E level>
> 95%

$$$$
